ASSAY PROCEDURE: Quantitative High-Throughput drug screen in 47 multiple myeloma cell lines against the NCATS MIPE library collection: KMS27_JCRB cell viability assay (AID 1918970); note: nearly all actives have a fitted effect of over 30% in size
STATED CONDITIONS: KMS27 myeloma cells, CellTiter-Glo ATP viability, 48 h
Results filed as inconclusive are left out. Calls of active or inactive are those of the source. Calls come from the whole dose curve; as a rule, active = well fitted cell-killing curve with a large enough effect; inconclusive = small, poorly fitted or top-dose-only effect, or effect the other way; inactive = no such curve, though single readings can be large or run the other way.
Hi! Could you answer with just one of these? active, inactive

Answered cases to consult:
compound=C=C1C(=O)O[C@H]2[C@@H]1CCC(C)=CCC[C@@]1(C)O[C@@H]21 assigned_class=active
compound="C[C@@H]1CC[C@@]2(OC1)OC1CC3C4CC=C5CC(O)CCC5(C)C4CCC3(C)C1[C@@H]2C (some centres undefined)" assigned_class=inactive

What was the test verdict on CCCCCCCCCCCCCCCC(=O)OC[C@@H](NC(=O)C(Cl)Cl)[C@H](O)c1ccc([N+](=O)[O-])cc1 ? inactive

What was the test verdict on C#C[C@]1(O)CC[C@@H]2[C@@H]3CCc4cc(O)ccc4[C@H]3CC[C@@]21C ? active

What was the test verdict on N#CC(=Cc1ccc(O)c(O)c1)C(=O)NCc1ccccc1 ? active

What was the test verdict on CC1=C(C(=O)Nc2cc3cn[nH]c3cc2F)C(c2ccc(Cl)cc2F)N=C(c2ccnc(Cl)c2)N1 (centres undefined) ? active
